- Target or test system: N-formyl peptide receptor 2 (Homo sapiens)
Experimental readout: pKi
Worth noting: pKi values are minus log10 of concentrations stated in mol/L.

Solved entries (count: 4):
{"Smiles notation": "COc1ccc(-c2cn3cccnc3n2)cc1NC(=O)C(C)C", "pKi": 5.66}
{"Smiles notation": "COc1ccc(CC(=O)Nc2cc(-c3cn4cccnc4n3)ccc2OC)cc1", "pKi": 5.22}
{"Smiles notation": "COc1ccc(-c2cn3cccnc3n2)cc1NC(=O)C1CC1", "pKi": 5.39}
{"Smiles notation": "CCC(=O)Nc1cc(-c2cn3cccnc3n2)ccc1OC", "pKi": 5.19}

Next up:
Tested on N-formyl peptide receptor 2 (Homo sapiens), the item `COc1ccc(-c2cc(C(F)(F)F)nc(N3CCN(Cc4ccccc4)CC3)n2)cc1OC` showed pKi equal to 5.00

---

- Target or test system: N-formyl peptide receptor 2 (Homo sapiens)
# key: entry, value: Ki

{"Smiles notation": "COc1ccc(-c2cc(C(F)(F)F)nc(N3CCN(C(c4ccccc4)c4ccccc4)CC3)n2)cc1OC", "Reported value": "> 25.1 µM"}
{"Smiles notation": "COc1ccc(-c2cn3cccnc3n2)cc1NC(=O)C1CCCC1", "Reported value": "> 39.9 µM"}
{"Smiles notation": "O=C(N1CCN(c2nc(-c3ccccc3)c3ccccc3n2)CC1)C(F)(F)F", "Reported value": "> 34.7 µM"}
{"Smiles notation": "CCOC(=O)N1CCN(c2nc(-c3ccc(OC)c(OC)c3)cc(C(F)(F)F)n2)CC1", "Reported value": "> 30.5 µM"}

Next up:
Documented Ki of `COc1ccc(-c2cc(C(F)(F)F)nc(N3CCN(c4ccccc4)CC3)n2)cc1OC` : > 30.2 µM
